Recorded MIC for the following molecules
System: Streptococcus pneumoniae
Experiment: Antimicrobial activity against erythromycin-susceptible Streptococcus pneumoniae ATCC 49619 by broth microdilution method
Type: functional
Give just the number in µg/mL; leave the unit off.

chemical_string=CC[C@H]1OC(=O)[C@H](C)[C@@H](O[C@H]2C[C@@](C)(OC)[C@@H](O)[C@H](C)O2)[C@H](C)[C@@H](O[C@@H]2O[C@H](C)C[C@H](N(C)C)[C@H]2O)[C@](C)(O)C[C@@H](C)CN(C)[C@H](C)[C@@H](O)[C@]1(C)O unit_name=µg/mL val=0.03
chemical_string=CC[C@H]1OC(=O)[C@H](C)[C@@H](O[C@H]2C[C@@](C)(OC)[C@@H](O)[C@H](C)O2)[C@H](C)[C@@H](O[C@@H]2O[C@H](C)C[C@H](N(C)C)[C@H]2O)[C@](C)(OC)C[C@@H](C)C(=O)[C@H](C)[C@@H](O)[C@]1(C)O unit_name=µg/mL val=0.03
chemical_string=CCCNC(=O)O[C@H]1[C@H](C)O[C@@H](O[C@H]2[C@H](C)[C@@H](O[C@@H]3O[C@H](C)C[C@H](N(C)C)[C@H]3O)[C@](C)(OC)C[C@@H](C)C(=O)[C@H](C)[C@@H](O)[C@](C)(O)[C@@H](CC)OC(=O)[C@@H]2C)C[C@@]1(C)OC unit_name=µg/mL val=0.25

Now for another entry.
QUERY: I'm curious: which MIC was measured for `CC[C@H]1OC(=O)[C@H](C)[C@@H](O[C@H]2C[C@@](C)(OC)[C@@H](OC(=O)NCCCC(=O)NCCc3ccccc3Cl)[C@H](C)O2)[C@H](C)[C@@H](O[C@@H]2O[C@H](C)C[C@H](N(C)C)[C@H]2O)[C@](C)(OC)C[C@@H](C)C(=O)[C@H](C)[C@@H](O)[C@]1(C)O` tested on Streptococcus pneumoniae?
RESULT: 0.03

----------
Recorded MIC for the following molecules
Tested on: Streptococcus pneumoniae
Assay: Antimicrobial activity against erythromycin-susceptible Streptococcus pneumoniae ATCC 49619 by broth microdilution method
Format: functional
Give just the number in µg/mL; leave the unit off.

QUERY: Give the measured MIC of `CC[C@H]1OC(=O)[C@H](C)[C@@H](O[C@H]2C[C@@](C)(OC)[C@@H](OC(=O)NCCc3ccc4c(c3)OCO4)[C@H](C)O2)[C@H](C)[C@@H](O[C@@H]2O[C@H](C)C[C@H](N(C)C)[C@H]2O)[C@](C)(OC)C[C@@H](C)C(=O)[C@H](C)[C@@H](O)[C@]1(C)O` .
RESULT: 0.06

QUERY: Thanks! And `CC[C@H]1OC(=O)[C@H](C)[C@@H](O[C@H]2C[C@@](C)(OC)[C@@H](OC(=O)NCCCCCC(=O)NC(C)C)[C@H](C)O2)[C@H](C)[C@@H](O[C@@H]2O[C@H](C)C[C@H](N(C)C)[C@H]2O)[C@](C)(OC)C[C@@H](C)C(=O)[C@H](C)[C@@H](O)[C@]1(C)O` ?
RESULT: 0.06

QUERY: Thanks! And `CC[C@H]1OC(=O)[C@H](C)[C@@H](O[C@H]2C[C@@](C)(OC)[C@@H](OC(=O)NCCCCCC(=O)NCCc3ccc(O)cc3)[C@H](C)O2)[C@H](C)[C@@H](O[C@@H]2O[C@H](C)C[C@H](N(C)C)[C@H]2O)[C@](C)(OC)C[C@@H](C)C(=O)[C@H](C)[C@@H](O)[C@]1(C)O` ?
RESULT: 0.06

QUERY: Thanks! And `CC[C@H]1OC(=O)[C@H](C)[C@@H](O[C@H]2C[C@@](C)(OC)[C@@H](OC(=O)NCc3ccc(OC)cc3)[C@H](C)O2)[C@H](C)[C@@H](O[C@@H]2O[C@H](C)C[C@H](N(C)C)[C@H]2O)[C@](C)(OC)C[C@@H](C)C(=O)[C@H](C)[C@@H](O)[C@]1(C)O` ?
RESULT: 0.03

QUERY: Thanks! And `CC[C@H]1OC(=O)[C@H](C)[C@@H](O[C@H]2C[C@@](C)(OC)[C@@H](OC(=O)NCCCC(=O)NCc3ccc(OC)cc3)[C@H](C)O2)[C@H](C)[C@@H](O[C@@H]2O[C@H](C)C[C@H](N(C)C)[C@H]2O)[C@](C)(OC)C[C@@H](C)C(=O)[C@H](C)[C@@H](O)[C@]1(C)O` ?
RESULT: 0.03

QUERY: Thanks! And `CC[C@H]1OC(=O)[C@H](C)[C@@H](O[C@H]2C[C@@](C)(OC)[C@@H](OC(=O)NCCCCCC(=O)NC3CCCCC3)[C@H](C)O2)[C@H](C)[C@@H](O[C@@H]2O[C@H](C)C[C@H](N(C)C)[C@H]2O)[C@](C)(OC)C[C@@H](C)C(=O)[C@H](C)[C@@H](O)[C@]1(C)O` ?
RESULT: 0.03

QUERY: Thanks! And `CCCCNC(=O)O[C@H]1[C@H](C)O[C@@H](O[C@H]2[C@H](C)[C@@H](O[C@@H]3O[C@H](C)C[C@H](N(C)C)[C@H]3O)[C@](C)(OC)C[C@@H](C)C(=O)[C@H](C)[C@@H](O)[C@](C)(O)[C@@H](CC)OC(=O)[C@@H]2C)C[C@@]1(C)OC` ?
RESULT: 0.25

----------
Recorded MIC for the following molecules
System: Streptococcus pneumoniae
Assay: Antimicrobial activity against erythromycin-resistant Streptococcus pneumoniae A22072 expressing the mef gene by broth microdilution method
Format: functional
Give just the number in µg/mL; leave the unit off.

Some solved cases for reference:
chemical_string=CC[C@H]1OC(=O)[C@H](C)[C@@H](O[C@H]2C[C@@](C)(OC)[C@@H](O)[C@H](C)O2)[C@H](C)[C@@H](O[C@@H]2O[C@H](C)C[C@H](N(C)C)[C@H]2O)[C@](C)(O)C[C@@H](C)C(=O)[C@H](C)[C@@H](O)[C@]1(C)O val=8
chemical_string=CC[C@H]1OC(=O)[C@H](C)[C@@H](O[C@H]2C[C@@](C)(OC)[C@@H](OC(=O)NCc3ccccc3)[C@H](C)O2)[C@H](C)[C@@H](O[C@@H]2O[C@H](C)C[C@H](N(C)C)[C@H]2O)[C@](C)(OC)C[C@@H](C)C(=O)[C@H](C)[C@@H](O)[C@]1(C)O val=0.25
chemical_string=CC[C@H]1OC(=O)[C@H](C)[C@@H](O[C@H]2C[C@@](C)(OC)[C@@H](OC(=O)NCCc3ccc(O)cc3)[C@H](C)O2)[C@H](C)[C@@H](O[C@@H]2O[C@H](C)C[C@H](N(C)C)[C@H]2O)[C@](C)(OC)C[C@@H](C)C(=O)[C@H](C)[C@@H](O)[C@]1(C)O val=4
chemical_string=CC[C@H]1OC(=O)[C@H](C)[C@@H](O[C@H]2C[C@@](C)(OC)[C@@H](OC(=O)NCCCCCC(=O)NC3CCCCC3)[C@H](C)O2)[C@H](C)[C@@H](O[C@@H]2O[C@H](C)C[C@H](N(C)C)[C@H]2O)[C@](C)(OC)C[C@@H](C)C(=O)[C@H](C)[C@@H](O)[C@]1(C)O val=1
chemical_string=CC[C@H]1OC(=O)[C@H](C)[C@@H](O[C@H]2C[C@@](C)(OC)[C@@H](OC(=O)NCCCC(=O)NCc3ccccc3)[C@H](C)O2)[C@H](C)[C@@H](O[C@@H]2O[C@H](C)C[C@H](N(C)C)[C@H]2O)[C@](C)(OC)C[C@@H](C)C(=O)[C@H](C)[C@@H](O)[C@]1(C)O val=0.5

QUERY: Give the measured MIC of `CCCNC(=O)O[C@H]1[C@H](C)O[C@@H](O[C@H]2[C@H](C)[C@@H](O[C@@H]3O[C@H](C)C[C@H](N(C)C)[C@H]3O)[C@](C)(OC)C[C@@H](C)C(=O)[C@H](C)[C@@H](O)[C@](C)(O)[C@@H](CC)OC(=O)[C@@H]2C)C[C@@]1(C)OC` .
RESULT: 2

QUERY: Thanks! And `CC[C@H]1OC(=O)[C@H](C)[C@@H](O[C@H]2C[C@@](C)(OC)[C@@H](O)[C@H](C)O2)[C@H](C)[C@@H](O[C@@H]2O[C@H](C)C[C@H](N(C)C)[C@H]2O)[C@](C)(OC)C[C@@H](C)C(=O)[C@H](C)[C@@H](O)[C@]1(C)O` ?
RESULT: 4

QUERY: Thanks! And `CCCCNC(=O)CCCCCNC(=O)O[C@H]1[C@H](C)O[C@@H](O[C@H]2[C@H](C)[C@@H](O[C@@H]3O[C@H](C)C[C@H](N(C)C)[C@H]3O)[C@](C)(OC)C[C@@H](C)C(=O)[C@H](C)[C@@H](O)[C@](C)(O)[C@@H](CC)OC(=O)[C@@H]2C)C[C@@]1(C)OC` ?
RESULT: 1
